Compiled record: IC50 values for Macrophage metalloelastase (Homo sapiens) across several sources.
reportedProperty: IC50 (nM)

Examples with their reported IC50 follow.
compound: Cc1ccc2nc(-c3ccc4oc5cc(S(=O)(=O)N[C@H](C(=O)O)C(C)C)ccc5c4c3)sc2c1
targetDesc: Macrophage metalloelastase (Homo sapiens)
IC50, nM: 12
--
compound: Cc1onc(-c2ccccc2)c1-c1ccc2oc3cc(S(=O)(=O)N[C@H](C(=O)O)C(C)C)ccc3c2c1
targetDesc: Macrophage metalloelastase (Homo sapiens)
IC50, nM: 82
--
compound: O=CN(O)C(CCC(F)(F)F)CS(=O)(=O)N1CCc2ccc(Cl)cc2C1 (stereo not drawn)
targetDesc: Macrophage metalloelastase (Homo sapiens)
IC50, nM: 22
--
compound: CC(C)[C@H](NS(=O)(=O)c1ccc2c(c1)oc1ccc(C3=NCCO3)cc12)C(=O)O
targetDesc: Macrophage metalloelastase (Homo sapiens)
IC50, nM: 2.8
--
compound: O=CN(O)C(CS(=O)(=O)N1CCc2cc(C(F)(F)F)ccc2C1)C1CC1 (stereo not drawn)
targetDesc: Macrophage metalloelastase (Homo sapiens)
IC50, nM: 5.2
--
compound: Cc1n[nH]c(C)c1-c1ccc2sc3cc(S(=O)(=O)N[C@H](C(=O)O)C(C)C)ccc3c2c1
targetDesc: Macrophage metalloelastase (Homo sapiens)
IC50, nM: 77
--
compound: COc1cc2c(cc1OC)CN(S(=O)(=O)CC([C@H]1COC(C)(C)O1)N(O)C=O)CC2 (stereo partly drawn)
targetDesc: Macrophage metalloelastase (Homo sapiens)
IC50, nM: 41
--
compound: O=CN(O)C(CS(=O)(=O)N1CCc2cc(C(F)(F)F)ccc2C1)C1CCCC1 (stereo not drawn)
targetDesc: Macrophage metalloelastase (Homo sapiens)
IC50, nM: 6

I = COc1ccc(S(=O)(=O)N2[C@H](C(=O)NO)C[C@@H]3CCN(C(=O)c4ccccc4)C[C@@H]32)cc1 (relative stereo)
II = O=CN(O)C(C#Cc1ccccc1)CS(=O)(=O)N1CCN(c2ccc(F)cc2)CC1 (stereo not drawn)
In: // pick min by IC50: I , II Indicate which entry you chose by stating its label.
Out: II
(II: 58 nM, I: 1100 nM)

###

pIC50: −log10 of the molar value.
Compiled record: pIC50 values for Macrophage metalloelastase (Homo sapiens, UniProt P39900) across several sources.
reportedProperty: pIC50

Examples with their reported pIC50 follow.
compound: CC1(C)OC[C@H](C(CS(=O)(=O)N2CCc3ccc(Cl)cc3C2)N(O)C=O)O1 (stereo partly shown)
reportedProperty: pIC50
reportedResult: 8.22
--
compound: CC(C)(CC#Cc1ccccc1)C(CS(=O)(=O)N1CCN(c2ccc(F)cc2)CC1)N(O)C=O (stereo not shown)
reportedProperty: pIC50
reportedResult: 7.70

1 = CC(C)(C)c1nc(-c2ccc3oc4cc(S(=O)(=O)N[C@H](C(=O)O)c5ccccc5)ccc4c3c2)no1
2 = CC(C)[C@@H](NS(=O)(=O)c1ccc2oc3cc(-c4noc(C(C)(C)C)n4)ccc3c2c1)C(=O)O
3 = CCC(CC)C(CS(=O)(=O)N1CCc2cc(OC)c(OC)cc2C1)N(O)C=O (stereo not shown)
In: With regard to pIC50, arrange the entries in ascending order, please. Response field: labels, in requested order.
Out: 3, 1, 2

###

Compiled record: IC50 values for UniProt:P39900 across several sources.
reportedProperty: IC50 (nM)

Examples with their reported IC50 follow.
molecule: CC(C)[C@@H](NS(=O)(=O)c1ccc2oc3cc(-c4cc5ccccc5s4)ccc3c2c1)C(=O)O
IC50 (nM): 4.9
--
molecule: CC(C)(C)CC(CS(=O)(=O)N1CCc2cc(C(F)(F)F)ccc2C1)N(O)C=O (stereo not drawn)
IC50 (nM): 3.2
--
molecule: CC(C)[C@H](NS(=O)(=O)c1ccc2c(c1)oc1ccc(C3=CCNCC3)cc12)C(=O)O
IC50 (nM): 5.4
--
molecule: O=CN(O)C(CS(=O)(=O)N1CCc2ccc(-c3ccc(F)cc3)cc2C1)C1CC1 (stereo not drawn)
IC50 (nM): 6
--
molecule: CC(C)[C@H](NS(=O)(=O)c1ccc2c(c1)sc1ccc(-c3cc4ccccc4s3)cc12)C(=O)O
IC50 (nM): 289
--
molecule: O=CN(O)[C@H](CS(=O)(=O)N1CCc2ccc(C(F)(F)F)cc2C1)[C@H]1CCCO1
IC50 (nM): 6.9
--
molecule: CC(C)(C)CC(CS(=O)(=O)N1CCc2cc(Cl)c(Cl)cc2C1)N(O)C=O (stereo not drawn)
IC50 (nM): 4.4
--
molecule: CC(C)[C@@H](NS(=O)(=O)c1ccc2oc3cc(-c4cnn(Cc5ccccc5)c4)ccc3c2c1)C(=O)O
IC50 (nM): 12
--
molecule: COc1ncc(-c2ccc3c(c2)oc2ccc(S(=O)(=O)N[C@@H](C(=O)O)C(C)C)cc23)c(OC)n1
IC50 (nM): 290
--
molecule: CC(C)[C@@H](NS(=O)(=O)c1ccc2oc3cc(-c4ccc(C(C)(C)C)o4)ccc3c2c1)C(=O)O
IC50 (nM): 19

a = CC(C)[C@H](NS(=O)(=O)c1ccc2c(c1)oc1ccc(-c3nc4ccc(OC(F)(F)F)cc4s3)cc12)C(=O)O
b = CC(C)[C@@H](NS(=O)(=O)c1ccc2c(c1)oc1ccc(-c3ccc4c(c3)C(C)(C)OC(=O)N4)cc12)C(=O)O
c = Cc1ccc(-c2ccc3c(c2)oc2cc(S(=O)(=O)N[C@H](C(=O)O)C(C)C)ccc23)s1
d = CC(C)Oc1ccc2c(c1)CN(S(=O)(=O)CC(C1CCCC1)N(O)C=O)CC2 (stereo not drawn)
e = CC(C)[C@H](NS(=O)(=O)c1ccc2c(c1)oc1ccc(-c3cnn(CCN4CCOCC4)c3)cc12)C(=O)O
In: Please list these molecules in decreasing order of IC50. Response field: labels, in requested order.
Out: d, e, b, c, a
(d: 322 nM, e: 223 nM, b: 11 nM, c: 2.5 nM, a: 1.7 nM)

A = O=CN(O)C(CCO)CS(=O)(=O)N1CCc2ccc(Cl)cc2C1 (stereo not drawn)
B = CCC(CC)C(CS(=O)(=O)N1CCc2cc(C(C)C)ccc2C1)N(O)C=O (stereo not drawn)
In: Between A and B , which one shows the larger IC50 value? Indicate which entry you chose by stating its label.
Out: A
(A: 46 nM, B: 4.2 nM)

a = C[C@@H]1CN(c2ccc(-c3ccccc3)cc2)CCN1C(=O)C[C@H](O)C(=O)NO
b = CCCCCC#CC(CS(=O)(=O)N1CCN(c2ccc(F)cc2)CC1)N(O)C=O (stereo not drawn)
In: // pick min by IC50: a , b Indicate which entry you chose by stating its label.
Out: a

I = CC(C)[C@H](NS(=O)(=O)c1ccc2c(c1)oc1ccc(-c3ccc(-c4ccno4)s3)cc12)C(=O)O
II = O=CN(O)C(COCc1ccccc1)CS(=O)(=O)N1CCc2ccc(C(F)(F)F)cc2C1 (stereo not drawn)
III = CC(C)[C@H](NS(=O)(=O)c1ccc2c(c1)oc1ccc(C(=N)Nc3ccccc3)cc12)C(=O)O
In: With regard to IC50, arrange the entries in ascending order, please. Response field: labels, in requested order.
Out: II, III, I

###

Compiled record: IC50 values for Macrophage metalloelastase (Homo sapiens, UniProt P39900) across several sources.
reportedProperty: IC50 (nM)

compound: CC(C)[C@H](NS(=O)(=O)c1ccc2c(c1)oc1cc(-c3noc(C(C)(C)C)n3)ccc12)C(=O)O
displayUnit: nM
reportedResult: 11
//
compound: CCN=C(NCC)c1ccc2oc3cc(S(=O)(=O)N[C@H](C(=O)O)C(C)C)ccc3c2c1
displayUnit: nM
reportedResult: 640

a = Cc1nc(-c2ccccc2)sc1-c1ccc2oc3cc(S(=O)(=O)N[C@H](C(=O)O)C(C)C)ccc3c2c1
b = COc1cc2c(cc1OC)CN(S(=O)(=O)CC([C@H](O)CO)N(O)C=O)CC2 (stereo partly drawn)
In: Between a and b , which one shows the larger IC50 value? Indicate which entry you chose by stating its label.
Out: b

A = CSCCC(CS(=O)(=O)N1CCc2ccc(C(C)(C)C)cc2C1)N(O)C=O (stereo not drawn)
B = CC(C)[C@@H](NS(=O)(=O)c1ccc2sc3cc(-c4ccc(Cl)o4)ccc3c2c1)C(=O)O
C = COc1ncc(-c2ccc3c(c2)oc2ccc(S(=O)(=O)N[C@@H](C(=O)O)C(C)C)cc23)cn1
D = CCC(CC)C(CS(=O)(=O)N1CCc2cc(Cl)c(Cl)cc2C1)N(O)C=O (stereo not drawn)
In: Please list these compounds in decreasing order of IC50. Response field: labels, in requested order.
Out: A, B, D, C

A = CC(C)[C@@H](NS(=O)(=O)c1ccc2sc3cc(-c4nc5ccccc5s4)ccc3c2c1)C(=O)O
B = O=CN(O)C(C#CCc1ccccc1)CS(=O)(=O)N1CCN(c2ccc(F)cc2)CC1 (stereo not drawn)
C = CC(C)[C@H](NS(=O)(=O)c1ccc2c(c1)oc1ccc(-c3nnn(C)n3)cc12)C(=O)O
In: Please list these compounds in decreasing order of IC50. Response field: labels, in requested order.
Out: A, B, C
(A: 130 nM, B: 21 nM, C: 2 nM)

1 = CC1(C)OC[C@H](C(CS(=O)(=O)N2CCc3ccccc3C2)N(O)C=O)O1 (stereo partly drawn)
2 = COc1ccc(S(=O)(=O)N2[C@H](C(=O)NO)C[C@@H]3CCN(C(=O)CCc4ccccc4)C[C@@H]32)cc1 (relative stereo)
In: // pick min by IC50: 1 , 2 Indicate which entry you chose by stating its label.
Out: 1

A = CC(C)[C@@H](NS(=O)(=O)c1ccc2oc3cc(-c4cn[nH]c4)ccc3c2c1)C(=O)O
B = CC(C)c1nc(-c2ccc3c(c2)oc2ccc(S(=O)(=O)N[C@@H](C(=O)O)C(C)C)cc23)no1
C = CC(C)[C@@H](NS(=O)(=O)c1ccc2oc3cc(-c4nc5ccc(C(F)(F)F)cc5s4)ccc3c2c1)C(=O)O
D = CC(C)Cn1cc(-c2ccc3oc4cc(S(=O)(=O)N[C@H](C(=O)O)C(C)C)ccc4c3c2)cn1
In: Please list these compounds in decreasing order of IC50. Response field: labels, in requested order.
Out: C, A, D, B

P = CC(C)[C@H](NS(=O)(=O)c1ccc2c(c1)sc1ccc(-c3ccsc3Cl)cc12)C(=O)O
Q = CC(C)[C@H](NS(=O)(=O)c1ccc2c(c1)oc1ccc(-c3noc(C4CCOCC4)n3)cc12)C(=O)O
In: // pick min by IC50: P , Q Indicate which entry you chose by stating its label.
Out: Q

1 = O=CN(O)C(CCc1ccccc1)CS(=O)(=O)N1Cc2ccccc2C1 (stereo not drawn)
2 = CC(C)[C@@H](NS(=O)(=O)c1ccc2oc3cc(-c4noc(-c5ccccc5)n4)ccc3c2c1)C(=O)O
In: // pick min by IC50: 1 , 2 Indicate which entry you chose by stating its label.
Out: 2
(2: 5 nM, 1: 9 nM)

A = Cc1nc(-c2ccc(C(F)(F)F)cc2)sc1-c1ccc2c(c1)oc1ccc(S(=O)(=O)N[C@@H](C(=O)O)C(C)C)cc12
B = Cc1nnc(-c2ccc3c(c2)oc2ccc(S(=O)(=O)N[C@@H](C(=O)O)C(C)C)cc23)s1
In: Between A and B , which one shows the larger IC50 value? Indicate which entry you chose by stating its label.
Out: A
(A: 740 nM, B: 43 nM)
